Hello, the source for this data is ChEMBL document CHEMBL6177981, in case you need it.

Assay: Bioavailability in Sprague-Dawley rat at 10 mg/kg, IG measured after 24 hrs by LC-MS/MS analysis
Assay type: ADME, organism-based
Conditions: in vivo, po
observation type: bioavailability

Task item: Recall and state the measured bioavailability for Cn1ccc(-c2ccc(NC(=O)[C@]34CCC(C)(C)C[C@H]3[C@H]3C(=O)C=C5[C@@]6(C)C=C(C#N)C(=O)C(C)(C)[C@@H]6CC[C@@]5(C)[C@]3(C)CC4)cc2)n1 .
Reply: 4.66%

---

Tested on: HT-29
Experiment: Anti-necroptotic activity in TSZ-induced human HT-29 cells assessed as increase in cell viability preincubated with Z-VAD-FMK and SM164 for 30 mins followed by TNFalpha stimulation for 12 hrs and measured after compound addition by CellTiter-Lumi luminescent cell viability assay
Assay type: functional, cell-based
observation type: EC50 (nM)
Numeric answer only, unit nM assumed.

Some solved entries appear below for comparison.
CC1(C)CC[C@]2(C(=O)Nc3ccc4occc4c3)CC[C@]3(C)[C@H](C(=O)C=C4[C@@]5(C)C=C(C#N)C(=O)C(C)(C)[C@@H]5CC[C@]43C)[C@@H]2C1: 1320
Cn1c(NC(=O)[C@]23CCC(C)(C)C[C@H]2[C@H]2C(=O)C=C4[C@@]5(C)C=C(C#N)C(=O)C(C)(C)[C@@H]5CC[C@@]4(C)[C@]2(C)CC3)nc2ccccc21: 3970
CC1(C)CC[C@]2(C(=O)Nc3cnc4ccccc4n3)CC[C@]3(C)[C@H](C(=O)C=C4[C@@]5(C)C=C(C#N)C(=O)C(C)(C)[C@@H]5CC[C@]43C)[C@@H]2C1: 2390

From here, focus on the item given below.
Task item: Name the value of EC50 reported for CC1(C)CC[C@]2(C(=O)O)CC[C@]3(C)[C@H](C(=O)C=C4[C@@]5(C)C=C(C#N)C(=O)C(C)(C)[C@@H]5CC[C@]43C)[C@@H]2C1 [BARDOXOLONE] when tested on HT-29.
Reply: 2520
